target.system: T1, human SIRPβ1v2 (huSIRPβ1v2) (human, UniProt Q5TFQ8 30-371)
T1 construct: Coated on the plate in ELISA; Only the Ensembl protein number is printed; also called huSIRPß1v2
T1 sequence (Q5TFQ8 30-371 limits assumed): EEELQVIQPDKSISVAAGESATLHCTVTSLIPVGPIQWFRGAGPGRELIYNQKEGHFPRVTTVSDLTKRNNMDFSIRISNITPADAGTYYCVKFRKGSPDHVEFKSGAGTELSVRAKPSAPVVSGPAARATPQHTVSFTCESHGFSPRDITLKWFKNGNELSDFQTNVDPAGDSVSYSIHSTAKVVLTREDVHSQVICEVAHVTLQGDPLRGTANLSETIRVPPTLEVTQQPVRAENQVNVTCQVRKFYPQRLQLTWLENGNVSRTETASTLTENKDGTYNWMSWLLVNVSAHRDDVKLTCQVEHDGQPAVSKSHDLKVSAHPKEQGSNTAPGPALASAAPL
assay.info: ELISA, antigen coated

{"columns": ["binder", "EC50"],
 "data": [
  ["anti-SIRPα antibody 8 (antibody, human IgG1, kappa, L234A L235A, V domains shown, Rabbit variable regions on human IgG1 LALA / kappa) VH: QSLEESGGRLVTPGTPLTLTCTASGVDLSNYAMGWVRQAPGKGLEWIGIIYAGGSTSYATWAKGRFTISKTSTTMDLKMTSPTTEDTATYFCARHRSDGYDYFHLWGPGTLVTVSL VL: AIDMTQTPASVSEPVGGTVTIKCQASQSISSWLAWYQQKPGQRPKLLIYDASKLASGVPSRFSGSGSGTEFTLTISGVQSDDAAAYYCQQGYAVSYVENIFGGGTEVVVKR", "0.019 µg/mL"]
]}
